Target: AcerOBP11m-Ile97 (Ile97Gly mutant) (Apis cerana, UniProt S5CRW7, I97G)
Sequence (S5CRW7 1-142 I97G): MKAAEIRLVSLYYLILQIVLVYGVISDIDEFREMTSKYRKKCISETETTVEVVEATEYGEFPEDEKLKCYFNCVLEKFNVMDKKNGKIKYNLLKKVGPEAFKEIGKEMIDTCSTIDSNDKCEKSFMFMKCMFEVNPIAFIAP
Assay: Fluorescence competitive binding assay with 1-NPN, mutant AcerOBP11m-Ile97
quantityMeasured: IC50 (µM)
All answers are understood in µM, so give the number only.

Q: Param item = COC(=O)c1ccc(O)cc1 [HOB, methyl p-hydroxybenzoate] ; retrieve measured IC50.
Result: 6.09

###

Molecular target: recombinant AcerOBP11 (Apis cerana, UniProt S5CRW7)
Sequence (S5CRW7 entry or part of it): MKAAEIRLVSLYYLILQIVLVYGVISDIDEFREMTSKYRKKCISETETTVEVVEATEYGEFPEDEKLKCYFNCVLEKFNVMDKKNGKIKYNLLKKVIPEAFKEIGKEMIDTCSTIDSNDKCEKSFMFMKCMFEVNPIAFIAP
Experiment: biochemical
Type: binding
Conditions: displacement of 1-NPN, 1 μmol/L protein in PBS, 25°C; Table 1; read-out: [IC50]
quantityMeasured: pIC50
Here pIC50 is given on a logarithmic scale as minus log10 of the concentration in mol/L.

Some entries whose results are on file:
- Cc1ccc(C=O)cc1C: 4.44
- CCCCCCCCCCCCCCCC(=O)OC [Methyl palmitate]: 4.68
- C=CC(=C)CCC=C(C)C: 4.34

Q: Param item = CCCCCC(C)=O ; retrieve measured pIC50.
Result: 4.51

Q: Param item = CC(=O)CCCCC/C=C/C(=O)O [9-ODA, (E)-9-oxo-2-decanoic acid] ; retrieve measured pIC50.
Result: 4.43

###

Target: AcerOBP11m-Phe101 (Phe101Gly mutant) (Apis cerana, UniProt S5CRW7, F101G)
Sequence (S5CRW7 1-142 F101G): as the sequence (S5CRW7 entry or part of it) above, with F101G counted along it
Test: Fluorescence competitive binding assay with 1-NPN, mutant AcerOBP11m-Phe101
Details: AcerOBP11m-Phe101, Table S4, mean ± SE; read-out: KD
Reported pKd values for a set of compounds
Here pKd is given on a logarithmic scale as minus log10 of the concentration in mol/L.

Some entries whose results are on file:
- C=CCc1ccc(OC)c(OC)c1: 5.32
- CC(=O)OCCC(C)C [Isoamyl acetate]: 5.58
- CC(C)=CCC/C(C)=C/CC/C(C)=C/CO: 5.50
- CCCCCCO: 5.63

Please examine the following record next.
Q: Param item = CCCCCCCCCCCCCCCC(=O)OCC [Ethyl palmitate] ; retrieve measured pKd.
Result: 5.41

###

Biological target: AcerOBP11m-Ile140 (Ile140Gly mutant) (Apis cerana, UniProt S5CRW7, I140G)
Sequence (S5CRW7 1-142 I140G): as the sequence (S5CRW7 entry or part of it) above, with I140G counted along it
Assay: Fluorescence competitive binding assay with 1-NPN, mutant AcerOBP11m-Ile140
Conditions: AcerOBP11m-Ile140, Table S4, mean ± SE; read-out: KD
quantityMeasured: Kd
Please state the value followed by its unit.

Some entries whose results are on file:
• CCCCCCCCCCCCCCCC(=O)OCC [Ethyl palmitate] = 5.34 µM
• CCCCCCO [n-hexanol] = 3.19 µM
• C=CCc1ccc(OC)c(OC)c1 [4-Allylveratrole] = 4.28 µM
• CC(=O)OCCC(C)C [Isoamyl acetate] = 3.99 µM

Please examine the following record next.
Q: Param item = CC(C)=CCC/C(C)=C/CC/C(C)=C/CO [Farnesol] ; retrieve measured Kd.
Result: 4.93 µM

###

Target: AcerOBP11m-Phe101 (Phe101Gly mutant) (Apis cerana, UniProt S5CRW7, F101G)
Experiment: Fluorescence competitive binding assay with 1-NPN, mutant AcerOBP11m-Phe101
quantityMeasured: pIC50
Here pIC50 is given on a logarithmic scale as minus log10 of the concentration in mol/L.

Q: Param item = COC(=O)c1ccc(O)cc1 [HOB, methyl p-hydroxybenzoate] ; retrieve measured pIC50.
Result: 5.20
